The measurements presented in this section are drawn from PubChem BioAssay.

# System: Plasmodium falciparum Sir2 (PF13_0152, Sir2A)
# PROCEDURE_TEXT: pfSir2 binders on small-molecule microarrays, primary screen, biochemical, small-molecule microarray, 635 nm fluorescence (AID 1098);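 note: score merges spot fluorescence intensity with its signal-to-noise ratio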
# STUDY_CONDITIONS: small-molecule microarray binding, fluorescence 635 nm; higher = more signal
Listed molecules paired with reported composite z-score
MEASURE: composite z-score

- C#CCCCON=C1C[C@@H](O)[C@@H](O)[C@@H]2[C@@H]3C(=O)N(Cc4ccccc4)C(=O)[C@@H]3CC[C@@H]12: -0.596
- C[C@H]1CC[C@H]2C(=O)O[C@H](COc3ccc(C(C)(C)C)cc3)CN2[C@@H]1c1ccc(Br)cc1: 0.926
- COC(=O)[C@H](C)NC(=O)CCC1CC(OC(=O)NCc2ccc3c(c2)OCO3)CC2(CCCC(COC(=O)NCc3cccc(C(F)(F)F)c3)O2)O1 (some centres undefined): 1.02
- CCN1C(=O)[C@H]2[C@H]3[C@H](O)[C@H](O)CC(=O)[C@H]3CC[C@H]2C1=O: 0.519

----------
# TESTED_ON: Torsin-1A (Homo sapiens) (UniProt O14656)
# Sequence (O14656 whole entry, looked up): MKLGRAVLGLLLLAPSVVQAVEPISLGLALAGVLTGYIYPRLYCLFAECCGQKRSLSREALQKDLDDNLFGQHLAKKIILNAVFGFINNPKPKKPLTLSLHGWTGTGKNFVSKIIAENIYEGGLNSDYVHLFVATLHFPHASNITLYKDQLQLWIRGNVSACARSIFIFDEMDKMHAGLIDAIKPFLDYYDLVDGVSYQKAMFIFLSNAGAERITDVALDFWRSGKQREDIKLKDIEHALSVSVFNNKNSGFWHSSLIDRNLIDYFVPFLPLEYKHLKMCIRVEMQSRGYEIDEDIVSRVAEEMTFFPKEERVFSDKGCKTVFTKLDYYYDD
# PROCEDURE_TEXT: torsin A binders from cell lysate, primary screen, small-molecule microarray, wild-type, 635/667 nm (AID 1149)
# STUDY_CONDITIONS: COS7 hTOR1A-WT lysate, 635 nm fluorescence, higher = more signal
MEASURE: composite z-score

• Cc1cc2c(c(=O)o1)[C@@H](O)[C@H]1O[C@H]1C2=O = 0.102
• CC(C)=CCCC(C)=CCON=C1C[C@@H](O)[C@@H](O)[C@@H]2[C@@H]3C(=O)N(C[C@@H]4CCCO4)C(=O)[C@@H]3CC[C@H]12 = 1.4
• Cc1ccc(S(=O)(=O)OC[C@H]2CN3[C@H](c4ccc(Br)cc4)[C@@H](C)CC[C@H]3C(=O)O2)cc1 = 0.782
• CCOC(=O)[C@H](Cc1ccccc1)NC(=O)CCC1CC(OC(=O)NCCc2ccc(F)cc2)CC2(CCCC(COC(=O)NCCOC)O2)O1 (some centres not stated) = 0.998
• C#CCCCON=C1C[C@@H](O)[C@@H](O)[C@@H]2[C@@H]3C(=O)N(C(C)(C)C)C(=O)[C@@H]3CC[C@H]12 = -0.309
• CO[C@H]1COC(=O)CC=C[C@@H](C)[C@H](OC)COC(=O)CCC[C@@H]1C = 1.89
• CCOC(=O)[C@H](CC(C)C)NC(=O)CCC1CC(OC(=O)NCCc2ccc(F)cc2)CC2(CCCC(COC(=O)NCCc3ccc(Cl)cc3)O2)O1 (some centres not stated) = 0.601

----------
# PROCEDURE_TEXT: small-molecule microarray binders of probe aCHRDL2, primary screen, biochemical, biotinylated probe, 635/667 nm fluorescence (AID 1100)
# STUDY_CONDITIONS: higher = more signal
MEASURE: composite z-score

• CC(C)(C)N1C(=O)[C@H]2[C@H]3[C@H](O)[C@H](O)CC(=NOCc4ccccc4)[C@H]3CC[C@H]2C1=O = 1.36
• O=C1C[C@@H](O)[C@@H](O)[C@@H]2[C@@H]3C(=O)N(c4cccc(Oc5ccccc5)c4)C(=O)[C@@H]3CC[C@H]12 = -0.709
• Cc1ccc(S(=O)(=O)OC[C@H]2CN3[C@H](c4ccc(Br)cc4)[C@@H](C)CC[C@H]3C(=O)O2)cc1 = -0.207
• O=C1[C@H]2[C@H]3[C@H](O)[C@H](O)CC(=NOCc4ccccc4)[C@@H]3CC[C@H]2C(=O)N1Cc1ccc2c(c1)OCO2 = -0.453
• C[C@@H](ON=C1[C@H]2CCn3c(=O)n(-c4ccccc4)c(=O)n3[C@H]2[C@H](O)[C@@H]2O[C@H]12)c1cn([C@@H]2COC[C@H]2O)nn1 = -0.511
• COC(=O)C1=C(C)N(Cc2ccccc2)[C@]23O[C@](C(=O)OC)(C(=O)N2[C@@H]1c1ccccc1)C(C(=O)OC)=C3C(=O)OC = -0.562
• CON=C(C)CCC(=O)OC[C@H]1O[C@H](c2ccccc2)C=C[C@@H]1Oc1ccc(OC)cc1 = -0.15
• CC(C)=NO[C@H](C)c1cn([C@H](CO)Cc2ccccc2)nn1 = -0.113

----------
# System: Noggin (protein binding on small-molecule microarray)
# PROCEDURE_TEXT: Noggin binders on small-molecule microarray, primary screen, biochemical, 635/667 nm fluorescence (AID 1095);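 note: score merges 667 nm feature fluorescence with signal to noise over triplicate slides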
# STUDY_CONDITIONS: 635 nm fluorescence, higher = more signal
MEASURE: composite z-score

* COC(=O)[C@H](C)NC(=O)CCC1CC(OC(=O)NCc2ccc3c(c2)OCO3)CC2(CCCC(COC(=O)NCC3CCCCC3)O2)O1 (stereo not given in full) | 1.1
* CO[C@H]1COC(=O)CC=C[C@H](C)[C@@H](OC)COC(=O)[C@H](C)COC(=O)CC=C[C@@H]1C | 1.76
* CCN1C(=O)[C@H]2[C@H]3[C@H](O)[C@H](O)CC(=NOC[C@H]4O[C@H](c5ccccc5)C=C[C@@H]4Oc4ccc(OC)cc4)[C@@H]3CC[C@H]2C1=O | 0.738
* C[C@H]1COC(=O)[C@@H]2CCCN2C(=O)[C@@H](C)COC(=O)[C@H](Cc2ccccc2)NC1=O | 0.396
* CCN1C(=O)[C@H]2[C@H]3[C@H](O)[C@H](O)CC(=NO[C@@H](C)c4cn([C@H](CO)Cc5ccccc5)nn4)[C@@H]3CC[C@H]2C1=O | 0.387
* O=C1C[C@@H](O)[C@@H](O)[C@@H]2[C@@H]3C(=O)N(C[C@@H]4CCCO4)C(=O)[C@@H]3CC[C@@H]12 | 0.658
* CC(C)[C@@H](OCc1ccccc1)[C@H](C)C=NOC[C@@H](O)COCc1ccco1 | 0.0964
* CC(CCN1CCCCc2nc(C)c(C)cc21)=NO[C@H](C)c1cn([C@H](CO)Cc2ccccc2)nn1 | 0.196
* COC(=O)CC=C[C@@H](C)[C@@H](C=NOCC[C@@H]1C=C[C@H](OC(C)=O)[C@@H](COC(C)=O)O1)NS(=O)(=O)c1ccc(C)cc1 | 0.706
* C#CCCCON=C1C[C@@H](O)[C@@H](O)[C@@H]2[C@@H]3C(=O)N(Cc4ccccc4)C(=O)[C@@H]3CC[C@@H]12 | 0.224
* CCOC(=O)NN=C1C[C@@H](O)[C@@H](O)[C@@H]2[C@@H]3C(=O)N([C@@H](C)c4ccccc4)C(=O)[C@@H]3CC[C@@H]12 | 0.797
* CCN1C(=O)[C@@H]2[C@H]3C(=CC[C@@H]2C1=O)C1(OCCCO1)[C@H]1O[C@H]1[C@H]3O | 0.643
* O=C1[C@H]2[C@H]3[C@H](O)[C@H](O)CC(=NOCc4ccccc4)[C@@H]3CC[C@H]2C(=O)N1C[C@@H]1CCCO1 | 0.228
* CO[C@H]1COC(=O)[C@@H]2CCCN2C(=O)CC=C[C@@H](C)[C@H](OC)COC(=O)[C@@H](OCc2ccccc2)C=C[C@@H]1C | 1.08
* O=C1[C@H]2[C@H]3[C@H](O)[C@H](O)CC(=NOC[C@@H](O)COCc4ccco4)[C@@H]3CC[C@H]2C(=O)N1C[C@@H]1CCCO1 | 0.997

----------
# PROCEDURE_TEXT: E. coli acrAB mutant growth effects, primary screen, E. coli filamentation inducers, strain DRC39, OD650, 48 h (AID 1179);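 note: screen aims at cell division blockers that make cells filament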
# STUDY_CONDITIONS: E. coli DRC39 delta-acrAB growth, higher = more signal, called active from +8 up or from −8 down
Listed molecules paired with reported z-score
MEASURE: z-score

- CCOC(=O)NN=C1C[C@@H](O)[C@@H](O)[C@@H]2[C@@H]3C(=O)N(C(C)(C)C)C(=O)[C@@H]3CC[C@H]12: 0.72
- COc1ccc(O[C@H]2C=C[C@@H](c3ccccc3)O[C@@H]2CON=C(C)CCN2CCc3nc(-c4ccccc4)c(-c4ccccc4)cc3C2)cc1: -1.89
- CO[C@H](C1CCCCC1)[C@H](C)C=CCC(=O)OCCCc1ccccc1: -0.417
- COC(=O)CC=C[C@H](C)[C@@H](OCc1cccc(Br)c1)[C@@H](C)[C@H](OC)C1CCCCC1: -0.596
- COc1ccc(C#C[C@@H]2C=C[C@H](OC(C)=O)[C@@H](COC(C)=O)O2)cc1: 0.348
- CO[C@H]1COC(=O)CC=C[C@@H](C)[C@H](OC)COC(=O)[C@@H]2CCCN2C(=O)CC=C[C@@H]1C: 0.53
- C=COC[C@@H]1CN2[C@@H](CC[C@@H](C)[C@@H]2c2ccc(Br)cc2)C(=O)O1: -1.65
- Cc1ccc(S(=O)(=O)n2c3ccccc3c3nnc(C(=O)c4ccccc4)nc32)cc1: 0.0979
